# experimentalDetails: qHTS assay to identify small molecule agonists of the constitutive androstane receptor (CAR) signaling pathway - cell viability counter screen (AID 1224836); also: nearly all actives have a fitted effect of over 45% in size
# conditionContext: HepG2-CYP2B6-hCAR viability, CellTiter-Fluor, 23 h, PK11195 added to every well; series mostly up to 92.4 µM
# From the text: U.S. Tox21 Program National Center for Advancing Translational Sciences [NCATS] NIH Chemical Genomics Center [NCGC] U.S. Environmental Protection Agency [EPA] National Institutes of Environmental Health Sciences [NIEHS] National Toxicology Program [NTP] U.S. Food and Drug Administration [FDA] […] Tox21 Assay Protocol Summary: A double-stable (hCAR and CYP2B6-2.2kb) transfected cell line, derived from human hepatoma (HepG2) cells, was utilized for the duration of the quantitative high-throughput screens. […]
Inconclusive results are not listed. Active and inactive are the calls of the source. Calls follow the shape of the dose curve; as a rule, active = well fitted cell-killing curve with a large enough effect in the repeat runs; inconclusive = weak or mixed curves, or effect the other way; inactive = flat fitted curve, though single readings scatter.
Labels: active, inactive

INSERT INTO results (molecule, grouplabel) VALUES
  ('CC(C)(C)C(O)/C=C/c1ccc2c(c1)OCO2 (stereo not given)', 'inactive'),
  ('O=C(O)c1cc(Cl)cc(Cl)c1O', 'inactive'),
  ('O=C(O)CCC(=O)OC[C@@H](NC(=O)C(Cl)Cl)[C@H](O)c1ccc([N+](=O)[O-])cc1', 'inactive'),
  ('O=C(O)CN1C(=O)c2cccc3cccc(c23)C1=O', 'inactive'),
  ('O=C(NS(=O)(=O)/C=C/c1ccccc1)c1ccc(F)cc1Cl', 'inactive'),
  ('CCC(C)(C)C(=O)O', 'inactive'),
  ('COC(=O)CC(C(C)=O)C(=O)OC (stereo not given)', 'inactive'),
  ('O=CNNC=O', 'inactive'),
  ('O=C1NC(=O)c2cccc3cccc1c23', 'inactive'),
  ('CC(=O)Oc1cccc(O)c1', 'inactive'),
  ('O=C(O)c1cccc(Oc2ccccc2)c1', 'inactive'),
  ('C=C(C)c1ccccc1', 'inactive'),
  ('CCN(CC)C(=O)N1CCN(C)CC1', 'inactive'),
  ('Cc1cn([C@H]2C[C@H](F)[C@@H](CO)O2)c(=O)[nH]c1=O', 'inactive'),
  ('CC1CCC(C(C)CS)CC1S (stereo not given)', 'inactive'),
  ('C1=CCC2CC=CC2C1 (stereo not given)', 'inactive'),
  ('CCCCCCCC/C=C\CCCCCCCC(=O)OCCO', 'inactive'),
  ('CCCCCCCC(=O)OCCCCCC', 'inactive'),
  ('O=C1[C@@H]2[C@H]3CC[C@H](C3)[C@@H]2C(=O)N1CCCCN1CCN(c2ncccn2)CC1', 'inactive'),
  ('O=C1CC[C@@H](C(=O)O)N1', 'inactive'),
  ('CN1C(CSCC(F)(F)F)Nc2cc(Cl)c(S(N)(=O)=O)cc2S1(=O)=O (stereo not given)', 'inactive'),
  ('CCN(CC)c1cccc(O)c1', 'inactive'),
  ('CCN(Cc1cccc(S(=O)(=O)O)c1)c1ccc(C(=C2C=CC(=[N+](CC)Cc3cccc(S(=O)(=O)O)c3)C=C2)c2ccc(O)cc2S(=O)(=O)[O-])cc1', 'active'),
  ('CSCC[C@H](NC(=O)[C@H](Cc1c[nH]c2ccccc12)NC(=O)CCNC(=O)OC(C)(C)C)C(=O)N[C@@H](CC(=O)O)C(=O)N[C@@H](Cc1ccccc1)C(N)=O', 'inactive'),
  ('C[C@H](CS)C(=O)N1CCC[C@H]1C(=O)O', 'inactive');

Value source: PubChem BioAssay (Tox21)
